Every entry's value here was drawn from the supplement of paper PMC4840960.

- System: E18 rat cortical neuron-glia co-culture;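 also: MBP fiber length per Olig2+ nucleus over MBP area × intensity per Olig2+ nucleus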
- method notes: fiber score / MBP score (myelination specific beyond OL differentiation) (ratio); higher = more myelination-specific MBP alignment
- condition details: 5 µM; treatment time: 8 days (DIV5-DIV13)
Where a name gives a salt, the structure may show the parent alone.
measured metric: fiber score / MBP score
Write the value as a bare number.

Field fiber score / MBP score (E18 rat cortical neuron-glia co-culture), entry O=C1[C@H](CC[C@H](O)c2ccc(F)cc2)[C@@H](c2ccc(O)cc2)N1c1ccc(F)cc1 [Ezetimibe] : 0.648

Field fiber score / MBP score (E18 rat cortical neuron-glia co-culture), entry CN1C(=O)CC[C@H]1c1cccnc1 [Cotinine] : 0.723

Field fiber score / MBP score (E18 rat cortical neuron-glia co-culture), entry NS(=O)(=O)c1cc2c(cc1Cl)N=CNS2(=O)=O [Chlorothiazide] : 0.841

Field fiber score / MBP score (E18 rat cortical neuron-glia co-culture), entry Cc1nc2ccccn2c(=O)c1CCN1CCC(C(=O)c2ccc(F)cc2)CC1 [Pirenperone] : 0.646

Field fiber score / MBP score (E18 rat cortical neuron-glia co-culture), entry OC(Cn1cncn1)(Cn1cncn1)c1ccc(F)cc1F [Fluconazole] : 0.784

Field fiber score / MBP score (E18 rat cortical neuron-glia co-culture), entry C[C@]12C[C@H](O)[C@H]3[C@@H](CCC4=CC(=O)CC[C@@]43C)[C@@H]1CC[C@@H]2C(=O)CO [Corticosterone] : 0.702

Field fiber score / MBP score (E18 rat cortical neuron-glia co-culture), entry CC1Cc2ccccc2N1NC(=O)c1ccc(Cl)c(S(N)(=O)=O)c1 (stereo not given) [Indapamide] : 1.31

Field fiber score / MBP score (E18 rat cortical neuron-glia co-culture), entry COc1ccc(C(=O)NCc2ccc(OCCN(C)C)cc2)cc1OC [Itopride] : 0.693

Field fiber score / MBP score (E18 rat cortical neuron-glia co-culture), entry Cc1ccccc1C(OCCN(C)C)c1ccccc1 (stereo not given) [Orphenadrine] : 0.896

Field fiber score / MBP score (E18 rat cortical neuron-glia co-culture), entry CCOC(=O)c1ncn2c1CN(C)C(=O)c1cc(F)ccc1-2 [Flumazenil] : 0.835

Field fiber score / MBP score (E18 rat cortical neuron-glia co-culture), entry COc1cc(OC)c(C(=O)CCCN2CCCC2)c(OC)c1 [Buflomedil] : 0.768

Field fiber score / MBP score (E18 rat cortical neuron-glia co-culture), entry CN(C)[C@@H]1C(O)=C(C(N)=O)C(=O)[C@@]2(O)C(O)=C3C(=O)c4c(O)ccc(Cl)c4[C@@H](O)[C@H]3C[C@@H]12 [Demeclocycline] : 0.666

Field fiber score / MBP score (E18 rat cortical neuron-glia co-culture), entry CN1CCN(CCCN2c3ccccc3Sc3ccc(Cl)cc32)CC1 [Prochlorperazine] : 1.56

Field fiber score / MBP score (E18 rat cortical neuron-glia co-culture), entry CC(C)NCC(O)COc1cccc2ccccc12 (stereo not given) [Propranolol] : 0.95

Field fiber score / MBP score (E18 rat cortical neuron-glia co-culture), entry O=S(=O)(O)CCS [Mesna] : 0.877

Field fiber score / MBP score (E18 rat cortical neuron-glia co-culture), entry O=C1CN2Cc3c(ccc(Cl)c3Cl)N=C2N1 [Anagrelide hydrochloride] : 0.706

Field fiber score / MBP score (E18 rat cortical neuron-glia co-culture), entry CC(C)Oc1ccc2c(=O)c(-c3ccccc3)coc2c1 [Ipriflavone] : 0.957

Field fiber score / MBP score (E18 rat cortical neuron-glia co-culture), entry CCN(Cc1ccncc1)C(=O)C(CO)c1ccccc1 (stereo not given) [Tropicamide] : 0.747

Field fiber score / MBP score (E18 rat cortical neuron-glia co-culture), entry O=C(c1ccc(OCCN2CCCCC2)cc1)c1c(-c2ccc(O)cc2)sc2cc(O)ccc12 [Raloxifene] : 0.788

Field fiber score / MBP score (E18 rat cortical neuron-glia co-culture), entry CCCCCCCCCCC[C@@H](C[C@@H]1OC(=O)[C@H]1CCCCCC)OC(=O)[C@H](CC(C)C)NC=O [Orlistat] : 0.913

Field fiber score / MBP score (E18 rat cortical neuron-glia co-culture), entry CCc1nc(N)nc(N)c1-c1ccc(Cl)cc1 [Pyrimethamine] : 2.19

Field fiber score / MBP score (E18 rat cortical neuron-glia co-culture), entry CC1(C)O[C@@H]2C[C@H]3[C@@H]4C[C@H](F)C5=CC(=O)C=C[C@]5(C)[C@@]4(F)[C@@H](O)C[C@]3(C)[C@]2(C(=O)CO)O1 [Fluocinolone Acetonide] : 0.825

Field fiber score / MBP score (E18 rat cortical neuron-glia co-culture), entry C[C@H](CCC(=O)O)[C@H]1CC[C@H]2[C@@H]3C(=O)C[C@@H]4CC(=O)CC[C@]4(C)[C@H]3CC(=O)[C@]12C [Dehydrocholic Acid] : 0.662

Field fiber score / MBP score (E18 rat cortical neuron-glia co-culture), entry NC[C@H]1CC[C@H](C(=O)Oc2ccc(CCC(=O)O)cc2)CC1 [Cetraxate] : 0.791

Field fiber score / MBP score (E18 rat cortical neuron-glia co-culture), entry C=CC1=C(C(=O)O)N2C(=O)[C@@H](NC(=O)/C(=N\O)c3csc(N)n3)[C@H]2SC1 [Cefdinir] : 0.824

Field fiber score / MBP score (E18 rat cortical neuron-glia co-culture), entry C[C@]12CCC(=O)C=C1CC[C@@H]1[C@@H]2[C@@H](O)C[C@@]2(C)[C@H]1CC[C@]2(O)C(=O)CO [Hydrocortisone] : 0.656

Field fiber score / MBP score (E18 rat cortical neuron-glia co-culture), entry CCCC(=O)Nc1ccc(OCC(O)CNC(C)C)c(C(C)=O)c1 (stereo not given) [Acebutolol] : 0.796

Field fiber score / MBP score (E18 rat cortical neuron-glia co-culture), entry C[C@H](CCC(=O)O)[C@H]1CC[C@H]2[C@@H]3[C@H](O)C[C@@H]4C[C@H](O)CC[C@]4(C)[C@H]3CC[C@]12C [Chenodeoxycholic Acid] : 0.787

Field fiber score / MBP score (E18 rat cortical neuron-glia co-culture), entry Clc1ccc2c(c1)C(N1CCNCC1)=Nc1ccccc1O2 [Amoxapine] : 0.185

Field fiber score / MBP score (E18 rat cortical neuron-glia co-culture), entry CS(=O)(=O)OCCCCOS(C)(=O)=O [Busulfan] : 1.46

Field fiber score / MBP score (E18 rat cortical neuron-glia co-culture), entry CC(C)[C@H](N)C(=O)OCCOCn1cnc2c(=O)nc(N)[nH]c21 [Valaciclovir] : 0.774

Field fiber score / MBP score (E18 rat cortical neuron-glia co-culture), entry CN(CCO)CC(O)Cn1cnc2c1c(=O)n(C)c(=O)n2C (stereo not given) [Jupal] : 0.635

Field fiber score / MBP score (E18 rat cortical neuron-glia co-culture), entry CN/C(=N\CCSCc1nc[nH]c1C)NC#N [Cimetidine] : 0.823

Field fiber score / MBP score (E18 rat cortical neuron-glia co-culture), entry CS(N)(=O)=O [Methanesulfonamide] : 0.693

Field fiber score / MBP score (E18 rat cortical neuron-glia co-culture), entry C[N+]1(C)CCC(OC(=O)C(O)(c2ccccc2)C2CCCC2)C1 (stereo not given) [Glycopyrrolate] : 0.888
